Tested on: human peripheral blood mononuclear cells (PBMCs)
Experiment: Human PBMC activation assay, cytokine levels (IL-10, IL-6, MCP-1, TNF-α) in supernatant after 24 hours (Example 9)
Conditions: human PBMC supernatant after 24 hours; 8 μM oligonucleotide
VALUE_KIND: Levels of IL-10 (pg/mL)

SUBSTANCE	VALUE_KIND	MEASUREMENT_UNITS	OBSERVED_VALUE
830121 (AGAATCAAGCCCTGGC; 3-10-3 cEt gapmer, further chemistry not given here) [compound 830121]	Levels of IL-10	pg/mL	3.7
790615 (CCAATGAGAATGCTTC; 3-10-3 cEt gapmer, further chemistry not given here) [compound 790615]	Levels of IL-10	pg/mL	1.9
830037 (antisense CTATTGGCTGATCTGG; 3-10-3 cEt gapmer, further chemistry not given here) [compound 830037]	Levels of IL-10	pg/mL	7.1
